# α1B/α1A listing for each entry below
# tested.target: α1A adrenoceptor (Rattus norvegicus)
# Construct: from tissue; host or cells: rat submaxillary gland membranes
# protocol.notes: Radioligand binding, [3H] prazosin displacement, rat submaxillary membranes
# setup.conditions: ratio of binding affinities, rat liver / rat submaxillary
Where a name gives a salt, the structure may show the parent alone.
In your answer, state the number alone without any accompanying words.

Some solved entries appear below for comparison.
> print(dat)
                                   compound                         tested.target  readout  measured
1  CC(C)Oc1ccccc1N1CCN(CCCN2C(=O)C3CC4OC4CC3C2=O)CC1 (stereo not shown) [Compound No. 19]  α1A adrenoceptor (Rattus norvegicus)  α1B/α1A       452
2  CCOc1ccccc1N1CCN(CCCN2C(=O)C3CC(O)C(Cl)CC3C2=O)CC1.Cl (stereo not shown) [Compound No. 17]  α1A adrenoceptor (Rattus norvegicus)  α1B/α1A        50
3  CC(C)Oc1ccc(O)cc1N1CCN(CCCN2C(=O)CCCC2=O)CC1 [Compound No. 36, hydrochloride]  α1A adrenoceptor (Rattus norvegicus)  α1B/α1A        52
4  CC(=O)Nc1ccc(N2CCN(CCCN3C(=O)C4CC=CCC4C3=O)CC2)c(OC(C)C)c1.Cl (stereo not shown) [Compound No. 58]  α1A adrenoceptor (Rattus norvegicus)  α1B/α1A        10

Observed α1B/α1A on α1A adrenoceptor (Rattus norvegicus) for CC(=O)OC1C=CC(OC(C)=O)C2C(=O)N(CCCN3CCN(c4ccccc4OC(C)C)CC3)C(=O)C12.Cl (stereo not shown) [Compound No. 73] , please.
23

Then CC(C)Oc1ccccc1NCCNCCCN1C(=O)[C@H]2CC=CC[C@H]2C1=O [Compound No. 42, hydrochloride] ?
41

====

# tested.target: α1A adrenoceptor (prostate) (Rattus norvegicus, UniProt P43140)
# Construct: from tissue; host or cells: isolated prostate tissue
# Sequence (P43140 whole entry): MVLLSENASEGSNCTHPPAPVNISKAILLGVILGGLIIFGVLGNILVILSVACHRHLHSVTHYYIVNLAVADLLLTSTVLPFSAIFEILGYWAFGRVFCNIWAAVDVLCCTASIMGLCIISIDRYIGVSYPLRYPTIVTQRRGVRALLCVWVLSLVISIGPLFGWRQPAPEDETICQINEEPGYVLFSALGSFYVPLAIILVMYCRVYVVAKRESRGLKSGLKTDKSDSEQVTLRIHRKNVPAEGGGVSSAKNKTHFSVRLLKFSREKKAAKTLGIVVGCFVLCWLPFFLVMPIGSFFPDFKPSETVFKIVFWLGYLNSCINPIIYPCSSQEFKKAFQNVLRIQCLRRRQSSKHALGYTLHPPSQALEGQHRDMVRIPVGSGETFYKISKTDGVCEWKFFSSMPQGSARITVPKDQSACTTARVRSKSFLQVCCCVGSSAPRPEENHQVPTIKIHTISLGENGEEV
# protocol.notes: In vitro functional assay, isolated prostate, phenylepinephrine contraction
# Assay type: cell-based
# setup.conditions: rat prostate, phenylepinephrine; read-out: α Adrenoceptor Subtype (pKB) α1A (converted)
Counter-ions that a name gives are not always drawn.
# Kb annotations
Kindly provide the numeric value in nM only, without the unit symbol.

A selection of reference data follows.
> print(dat)
                                   compound  unit.label  measured
1  CCOc1ccccc1N1CCN(CC(O)CN2C(=O)C3CC=CCC3C2=O)CC1 (stereo not shown) [Compound No. 11, hydrochloride]          nM      7.24
2  CCOc1ccccc1N1CCN(CCCN2C(=O)C3CCC(O)CC3C2=O)CC1.Cl (stereo not shown) [Compound No. 18, hydrochloride]          nM     0.427
3  CC(C)Oc1cc(N)ccc1N1CCN(CCCN2C(=O)C3CC=CCC3C2=O)CC1.Cl (stereo not shown) [Compound No. 26, hydrochloride]          nM      1.58
4  CC(C)Oc1ccccc1N1CCN(CCCN2C(=O)C3CC(O)C(Cl)CC3C2=O)CC1.Cl (stereo not shown) [Compound No. 28, hydrochloride]          nM     0.977
5  CC(C)Oc1ccccc1N1CCN(CCCN2C(=O)C3CC=CC(O)C3C2=O)CC1.Cl (stereo not shown) [Compound No. 41, hydrochloride]          nM     0.513

Given the entry O=C1C2CC=CCC2C(=O)N1CC(O)CN1CCN(c2ccccc2OCC(F)(F)F)CC1 (stereo not shown) [Compound No. 31, hydrochloride] , report its measured Kb.
1.45

Then CC(C)Oc1ccccc1N1CCN(CC(O)CN2C(=O)CCCC2=O)CC1.Cl (stereo not shown) [Compound No. 29, hydrochloride] ?
0.229

====

# tested.target: α1A adrenoceptor (Rattus norvegicus, UniProt P43140)
# Construct: from tissue; host or cells: rat submaxillary gland membranes
# Sequence (P43140 whole entry): as above
# protocol.notes: Radioligand binding, [3H] prazosin displacement, rat submaxillary membranes
# setup.conditions: ratio of binding affinities, rat liver / rat submaxillary
Structures can show the parent of a compound that is named as a salt.
readout: α1B/α1A
Form rule: numeric answer, no unit written next to it.

> print(dat)
                                   compound  measured
1  CCOc1ccccc1N1CCN(CC(O)CN2C(=O)C3CC=CCC3C2=O)CC1 (stereo not shown) [Compound No. 11, hydrochloride]        30
2  O=C1C2CC3OC3CC2C(=O)N1CC(O)CN1CCN(c2ccccc2OCC(F)(F)F)CC1 (stereo not shown)       159
3        COc1ccccc1NCCNCCCN1C(=O)CCCC1=O.Cl         1
4  COC1=C(OC)CC2C(=O)N(CCCN3CCN(c4ccccc4OC(C)C)CC3)C(=O)C2C1 (stereo not shown) [Compound No. 75, hydrochloride]        31

Requested field: α1B/α1A. Item: CC(C)Oc1ccccc1[N+]1([O-])CCN(CCCN2C(=O)C3CC=CCC3C2=O)CC1 (stereo not shown)
31

====

# tested.target: α1B adrenoceptor (Rattus norvegicus)
# Sequence (P15823 whole entry): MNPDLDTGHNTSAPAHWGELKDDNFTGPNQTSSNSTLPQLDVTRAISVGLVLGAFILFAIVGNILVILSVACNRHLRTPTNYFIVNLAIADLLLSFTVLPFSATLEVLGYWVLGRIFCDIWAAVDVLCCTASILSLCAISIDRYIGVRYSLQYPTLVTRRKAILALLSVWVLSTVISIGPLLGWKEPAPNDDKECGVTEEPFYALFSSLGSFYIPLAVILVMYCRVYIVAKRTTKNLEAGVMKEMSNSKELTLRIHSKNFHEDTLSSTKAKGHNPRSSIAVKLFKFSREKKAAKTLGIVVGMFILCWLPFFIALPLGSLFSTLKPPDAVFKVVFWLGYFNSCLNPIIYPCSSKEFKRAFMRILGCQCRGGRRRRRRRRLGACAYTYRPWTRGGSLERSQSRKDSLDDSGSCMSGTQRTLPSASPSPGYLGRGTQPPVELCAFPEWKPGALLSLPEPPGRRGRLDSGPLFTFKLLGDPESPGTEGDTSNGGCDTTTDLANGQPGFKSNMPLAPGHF
Counter-ions that a name gives are not always drawn.
readout: pKi
Convention used: pKi is expressed as -log10 of the molar concentration.

I have this molecule here, CC(=O)OC1C=CCC2C(=O)N(CCCN3CCN(c4ccccc4OC(C)C)CC3)C(=O)C12 (centres unmarked) [Compound No. 40, hydrochloride] , and I need its recorded pKi.
6.84

Please give the result for CC(C)Oc1ccccc1N1CCN(CC(O)CN2C(=O)C3CC=CCC3C2=O)CC1.Cl (centres unmarked) [compound 07, hydrochloride] too.
6.97

Also check Cl.O=C1CCCC(=O)N1CC(O)CN1CCN(c2ccccc2O)CC1 (centres unmarked) [Compound No. 44, hydrochloride]
5.76

And for COC1CC2C(=O)N(CCCN3CCN(c4ccccc4OC(C)C)CC3)C(=O)C2CC1OC.Cl (centres unmarked) [Compound No. 76, hydrochloride] ?
6.72

Same read-out for CC(C)Oc1ccccc1N1CCN(CCCN2C(=O)[C@@H]3[C@H](C2=O)[C@H]2C=C[C@@H]3O2)CC1 [Compound No. 61, hydrochloride] ?
7.54

Then what about the molecule CC(C)Oc1ccc(O)cc1N1CCN(CCCN2C(=O)C3CC=CCC3C2=O)CC1.Cl (centres unmarked) [Compound No. 21, hydrochloride] ?
6.19

Same question, Cl.O=C1C2CC=CCC2C(=O)N1CCN1CCN(c2ccccc2OCC(F)(F)F)CC1 (centres unmarked) [Compound No. 16, hydrochloride] this time
6.57

Another molecule to look at: CC(C)Oc1cc(N)ccc1N1CCN(CCCN2C(=O)C3CC=CCC3C2=O)CC1.Cl (centres unmarked) [Compound No. 26, hydrochloride]
5.68

Lookup CC(C)Oc1ccc(O)cc1N1CCN(CCCN2C(=O)CCCC2=O)CC1 [Compound No. 36, hydrochloride]
6.24

====

# tested.target: α1A adrenoceptor (prostate) (Rattus norvegicus, UniProt P43140)
# Construct: from tissue; host or cells: isolated prostate tissue
# protocol.notes: In vitro functional assay, isolated prostate, phenylepinephrine contraction
# Assay type: cell-based
# setup.conditions: functional, from pKB
readout: Selectivity α1B/α1A
Output spec: single numeric token, no unit.

For CC(C)Oc1ccccc1N1CCN(CCCN2C(=O)C3CC4OC4CC3C2=O)CC1 (stereo not shown) , what is its reported Selectivity α1B/α1A?
87

Repeat for the following compound: CCOc1ccccc1N1CC[N+]([O-])(CCCN2C(=O)C3CC=CCC3C2=O)CC1 (stereo not shown)
2.9

Further, for CC(C)Oc1ccccc1N1CCN(CC(O)CN2C(=O)C3CC=CCC3C2=O)CC1.Cl (stereo not shown) ?
13

Another compound to look at: CC(C)Oc1ccccc1N1CCN(CCCN2C(=O)C3CCC(O)CC3C2=O)CC1 (stereo not shown)
240

====

# tested.target: α1A adrenoceptor (Rattus norvegicus, UniProt P43140)
# Construct: from tissue; host or cells: rat submaxillary gland membranes
# protocol.notes: Radioligand binding, [3H] prazosin displacement, rat submaxillary membranes
# setup.conditions: ratio of binding affinities, rat liver / rat submaxillary
readout: α1B/α1A

# annotated cases, reported α1B/α1A shown
> print(dat)
                                   molecule  readout  measured
1  CC(C)Oc1ccccc1N(CCO)CCN(CCO)CCCN1C(=O)C2CC=CCC2C1=O (stereo not drawn) [Compound No. 51]  α1B/α1A       >23
2  CC(C)Oc1ccccc1N1CCN(CCC(=O)N2C(=O)C3CCCCC3C2=O)CC1.Cl (stereo not drawn) [Compound No. 63]  α1B/α1A       >10

Continue with the molecule presented below.
Which α1B/α1A value belongs to CC(C)Oc1ccccc1N1CCN(CCCN2C(=O)C3CCCC(O)C3C2=O)CC1.Cl (stereo not drawn) [Compound No. 60] ?
118

====

# tested.target: α1A adrenoceptor (Rattus norvegicus, UniProt P43140)
# Construct: from tissue; host or cells: rat submaxillary gland membranes
# protocol.notes: Radioligand binding, [3H] prazosin displacement, rat submaxillary membranes
# setup.conditions: ratio of binding affinities, rat liver / rat submaxillary
Where a name gives a salt, the structure may show the parent alone.
α1B/α1A listing for selected molecules.

Below are worked cases with known answers.
> print(dat)
                                   molecule  measured
1  CC(C)Oc1ccccc1N1CCN(CCCN2C(=O)C3CC=CCC3C2=O)CC1=O (stereo not drawn) [Compound No. 54]        >2
2  COc1ccccc1NCCNCCCN1C(=O)CCCC1=O [Compound No. 56, hydrochloride]       >10

Record lookup: for α1A adrenoceptor (Rattus norvegicus, UniProt P43140), what α1B/α1A belongs to CC(C)Oc1ccccc1N1CCN(CCCN2C(=O)C3CC=CCC3C2=O)C1=O (stereo not drawn) [Compound No. 67] ?
>53
